# System: webbing clothes moth (Tineola bisselliella)
# measurement.protocol: Biological test 14: persistence of treated filter paper in cardboard box, webbing clothes moth larvae
# Type: in vivo
# Parameters: key: -: no damage; +: slight damage; ++: heavy damage; +++: severe damage
# settings: 36 mg on filter paper, After 3 weeks

| molecule | degree of damage |
| --- | --- |
| CC1(C)C(/C=C(\Cl)C(F)(F)F)C1C(=O)OCc1coc(Cc2ccccc2)c1 (stereo not shown) [A, reference compound] | +++ |
| C=CCc1ccc(COC(=O)[C@@H]2[C@H](/C=C(\Cl)C(F)(F)F)C2(C)C)o1 (racemic) | - |
| CCCc1ccc(COC(=O)[C@@H]2[C@H](/C=C(\Cl)C(F)(F)F)C2(C)C)o1 (racemic) | - |
| Cc1ccc(COC(=O)[C@@H]2[C@H](/C=C(\Cl)C(F)(F)F)C2(C)C)o1 (racemic) | - |

###

# Test system: webbing clothes moth (Tineola bisselliella)
# measurement.protocol: Biological test 14: persistence of treated filter paper in cardboard box, webbing clothes moth larvae
# Assay type: in vivo
# settings: 36 mg on filter paper, After 3 weeks
property: percent moribund (%)
Please respond with the number in % and leave the unit unwritten.

| molecule | measured.target | percent moribund [%] |
| --- | --- | --- |
| C#CCc1ccc(COC(=O)C2C(/C=C(\Cl)C(F)(F)F)C2(C)C)o1 (stereo not shown) [C, reference compound] | webbing clothes moth (Tineola bisselliella) | 20 |
| CCc1ccc(COC(=O)[C@@H]2[C@H](/C=C(\Cl)C(F)(F)F)C2(C)C)o1 (racemic) [present compound (2)] | webbing clothes moth (Tineola bisselliella) | 100 |
| Cc1ccc(COC(=O)[C@@H]2[C@H](/C=C(\Cl)C(F)(F)F)C2(C)C)o1 (racemic) [present compound (1)] | webbing clothes moth (Tineola bisselliella) | 100 |
| CC1(C)C(/C=C(\Cl)C(F)(F)F)C1C(=O)OCc1coc(Cc2ccccc2)c1 (stereo not shown) [A, reference compound] | webbing clothes moth (Tineola bisselliella) | 5 |
| C=CCc1ccc(COC(=O)[C@@H]2[C@H](/C=C(\Cl)C(F)(F)F)C2(C)C)o1 (racemic) [present compound (4)] | webbing clothes moth (Tineola bisselliella) | 100 |
| CCCc1ccc(COC(=O)[C@@H]2[C@H](/C=C(\Cl)C(F)(F)F)C2(C)C)o1 (racemic) [present compound (3)] | webbing clothes moth (Tineola bisselliella) | 100 |

Next molecule, percent moribund to be filled in.
Using the record for CC1(C)C(/C=C(\Cl)C(F)(F)F)C1C(=O)OCc1ccc(C(F)F)o1 (stereo not shown) [B, reference compound] , state its measured percent moribund.
53

###

# Tested on: webbing clothes moth (Tineola bisselliella)
# measurement.protocol: Biological test 14: persistence of treated filter paper in cardboard box, webbing clothes moth larvae
# Type: in vivo
# Set-up: key: -: no damage; +: slight damage; ++: heavy damage; +++: severe damage
# settings: 36 mg on filter paper, After 3 weeks

| molecule | degree of damage |
| --- | --- |
| C#CCc1ccc(COC(=O)C2C(/C=C(\Cl)C(F)(F)F)C2(C)C)o1 (stereo not drawn) [C, reference compound] | +++ |
| CC1(C)C(/C=C(\Cl)C(F)(F)F)C1C(=O)OCc1ccc(C(F)F)o1 (stereo not drawn) [B, reference compound] | +++ |
| CCc1ccc(COC(=O)[C@@H]2[C@H](/C=C(\Cl)C(F)(F)F)C2(C)C)o1 (racemic) | - |

Source: patent EP0989125B1
